Entry source: paper PMC8485799

>  <compound>
NNC(=O)c1noc(-c2ccccc2)c1CNc1ccc(Cl)cc1 [3 bb]

>  <melting point>
190.6 to 191.6 °C

$$$$
>  <compound>
COc1ccc(NCc2c(C(=O)NN)noc2-c2ccc([N+](=O)[O-])cc2)cc1 [3 ac]

>  <melting point>
144.2 to 146.8 °C

$$$$
>  <compound>
NNC(=O)c1noc(-c2ccc(F)cc2)c1CNc1ccccc1 [3 ca]

>  <melting point>
174 to 175 °C

$$$$
>  <compound>
O=C(N/N=C/c1ccccn1)c1noc(-c2ccc(F)cc2)c1CNc1ccccc1 [5 ca]

>  <melting point>
157.7 to 159.6 °C

$$$$
>  <compound>
O=C(N/N=C/c1ccc(-c2cccs2)s1)c1noc(-c2ccc(Cl)cc2)c1CNc1ccccc1 [6 da]

>  <melting point>
208.4 to 209.9 °C

$$$$
>  <compound>
O=C(N/N=C/c1ccccn1)c1noc(-c2ccc(Cl)cc2)c1CNc1ccc(Cl)cc1 [5 db]

>  <melting point>
175.7 to 176.4 °C

$$$$
>  <compound>
O=C(N/N=C/c1ccccc1)c1noc(-c2ccc([N+](=O)[O-])cc2)c1CNc1ccc(Cl)cc1 [4 ab]

>  <melting point>
177.6 to 179 °C

$$$$
>  <compound>
COc1ccc(NCc2c(C(=O)NN)noc2-c2ccc(Cl)cc2)cc1 [3 dc]

>  <melting point>
157 to 158.8 °C

$$$$
>  <compound>
NNC(=O)c1noc(-c2ccc([N+](=O)[O-])cc2)c1CNc1ccccc1 [3 aa]

>  <melting point>
189 to 190.4 °C

$$$$
>  <compound>
CCOC(=O)c1noc(-c2ccc(Cl)cc2)c1CNc1ccc(Cl)cc1 [2 db]

>  <melting point>
173.3 to 175.4 °C

$$$$
>  <compound>
O=C(N/N=C/c1ccccc1)c1noc(-c2ccc(Cl)cc2)c1CNc1ccccc1 [4 da]

>  <melting point>
189.3 to 191.8 °C

$$$$
>  <compound>
O=C(N/N=C/c1ccccn1)c1noc(-c2ccccc2)c1CNc1ccc(Cl)cc1 [5 bb]

>  <melting point>
209.3 to 211.7 °C

$$$$
>  <compound>
O=C(N/N=C/c1ccccc1)c1noc(-c2ccc(Cl)cc2)c1CNc1ccc(Cl)cc1 [4 db]

>  <melting point>
167.5 to 169.3 °C

$$$$
>  <compound>
O=C(N/N=C/c1ccccn1)c1noc(-c2ccc(Cl)cc2)c1CNc1ccccc1 [5 da]

>  <melting point>
180.5 to 182.9 °C

$$$$
>  <compound>
NNC(=O)c1noc(-c2ccc(Cl)cc2)c1CNc1ccc(Cl)cc1 [3 db]

>  <melting point>
175.9 to 177.8 °C

$$$$
>  <compound>
CCOC(=O)c1noc(-c2ccc(Cl)cc2)c1CNc1ccccc1 [2 da]

>  <melting point>
172.9 to 173.4 °C

$$$$
>  <compound>
COc1ccc(NCc2c(C(=O)N/N=C/c3ccccn3)noc2-c2ccc(Cl)cc2)cc1 [5 dc]

>  <melting point>
210.4 to 212.4 °C

$$$$
>  <compound>
O=C(N/N=C/c1ccccc1)c1noc(-c2ccccc2)c1CNc1ccc(Cl)cc1 [4 bb]

>  <melting point>
188.4 to 190.1 °C

$$$$
>  <compound>
O=C(N/N=C/c1ccccc1)c1noc(-c2ccccc2)c1CNc1ccccc1 [4 ba]

>  <melting point>
169.9 to 172 °C

$$$$
>  <compound>
NNC(=O)c1noc(-c2ccc(F)cc2)c1CNc1ccc(Cl)cc1 [3 cb]

>  <melting point>
178.1 to 181.2 °C

$$$$
